- TESTED SYSTEM: HIV-1 envelope (Env) of virus REJO4541.67 (HIV-1)
- TEST PROTOCOL: cell-based or functional assay
Overview of reported IC50 of viral neutralization (Env.IMC.LucR virus, TZM-BL reporter cells) across a group of binders:
TEST READOUT: IC50 of viral neutralization (Env.IMC.LucR virus, TZM-BL reporter cells) (µg/mL)

>  <BINDER>
L2A1_H60SA (antibody, V domains shown) VH: HVQLVQSGGGVKKIGAAVRISCEVTGYKFMDQLINWVRQAPGQGLEWMGWMNPTYGQVNYAWRFEGRVTMTRDMDTETAFMELRGLRVDDTAVYYCARGPSGENYPFHYWGQGVRVVVSS VL: ASALTQPASMSASPGQSVTISCSGTRHIISAWFQQYPGKPPKLIIFDDDKRPSGVPSRFSASRPGDTASLTISNVQPEDEATYICNTYEFFGGGTRLTVL

>  <ASSAY RESULT>
0.105

$$$$
>  <BINDER>
NVS49-L2A1 (antibody, V domains shown) VH: HVQLVQSGGGVKKIGAAVRISCEVTGYKFMDQLINWVRQAPGQGLEWMGWMNPTYGQVNYSWRFEGRVTMTRDMDTETAFMELRGLRVDDTAVYYCARGPSGENYPFHYWGQGVRVVVSS VL: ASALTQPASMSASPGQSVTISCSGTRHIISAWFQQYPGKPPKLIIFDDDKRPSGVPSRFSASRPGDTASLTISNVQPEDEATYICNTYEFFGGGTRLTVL

>  <ASSAY RESULT>
0.022

$$$$
>  <BINDER>
L2A1_H58NS (antibody, V domains shown) VH: HVQLVQSGGGVKKIGAAVRISCEVTGYKFMDQLINWVRQAPGQGLEWMGWMNPTYGQVSYSWRFEGRVTMTRDMDTETAFMELRGLRVDDTAVYYCARGPSGENYPFHYWGQGVRVVVSS VL: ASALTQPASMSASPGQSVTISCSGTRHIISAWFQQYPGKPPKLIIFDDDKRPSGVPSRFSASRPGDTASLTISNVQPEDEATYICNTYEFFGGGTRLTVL

>  <ASSAY RESULT>
0.206

$$$$
>  <BINDER>
L2A1_H60SN (antibody, V domains shown) VH: HVQLVQSGGGVKKIGAAVRISCEVTGYKFMDQLINWVRQAPGQGLEWMGWMNPTYGQVNYNWRFEGRVTMTRDMDTETAFMELRGLRVDDTAVYYCARGPSGENYPFHYWGQGVRVVVSS VL: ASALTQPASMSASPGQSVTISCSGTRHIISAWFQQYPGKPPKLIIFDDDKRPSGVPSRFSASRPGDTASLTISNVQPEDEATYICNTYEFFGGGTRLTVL

>  <ASSAY RESULT>
0.121

$$$$
